Target: Recombinant human TPH1 (MBP tagged) (Homo sapiens)
Construct: cloning full length human TPH1 cDNA in to a bacterial pMAL-c5E expression vector; made in house; host or cells: E. coli BL21 (DE3)
Sequence (P17752 whole entry): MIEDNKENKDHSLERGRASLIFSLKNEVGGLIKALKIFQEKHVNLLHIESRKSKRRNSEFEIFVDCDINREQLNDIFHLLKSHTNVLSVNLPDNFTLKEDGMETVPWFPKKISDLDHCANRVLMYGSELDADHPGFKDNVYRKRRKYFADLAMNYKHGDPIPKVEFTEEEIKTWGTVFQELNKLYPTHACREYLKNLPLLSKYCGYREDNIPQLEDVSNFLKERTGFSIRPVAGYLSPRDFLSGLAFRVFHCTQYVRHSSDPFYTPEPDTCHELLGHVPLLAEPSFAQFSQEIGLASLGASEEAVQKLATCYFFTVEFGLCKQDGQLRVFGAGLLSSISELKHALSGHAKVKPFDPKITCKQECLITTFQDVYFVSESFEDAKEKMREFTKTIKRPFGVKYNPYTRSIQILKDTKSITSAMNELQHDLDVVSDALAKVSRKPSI
Experiment: TPH1 in vitro inhibition assay (kinetic fluorescence)
Type: biochemical
Conditions: read-out: TPH1 Range (TPH1 inhibition IC50)
Procedure: Recombinant human TPH1 (rTPH1 GenBank™ accession no. NP_004179) was expressed by cloning full length human TPH1 cDNA in to a bacterial pMAL-c5E expression vector to produce maltose-binding protein (MBP) TPH1 fusion proteins. […] TPH1 activities were measured in an assay containing 200 mM ammonium sulfate, 7 mM DTT, 50 μg/mL catalase, 25 μM ammonium iron sulfate, 50 mM MES, pH 7.1. […] Fluorescence reads are recorded in kinetic mode for 300 seconds (5 minutes). […]
Attribute measured: IC50

As a guide, the following entries are already answered.
| Compound | IC50 |
| --- | --- |
| Cc1ccn(-c2cc(-c3cncnc3)ccc2[C@@H](Oc2cc(N3CCC4(CC3)CN[C@H](C(=O)O)C4)nc(N)n2)C(F)(F)F)n1 | < 50 nM |
| Cc1ccn(-c2cc(-c3ccc(OC(C)C)c(C)c3)ccc2[C@@H](Oc2cc(N3CCC4(CC3)CN[C@H](C(=O)O)C4)nc(N)n2)C(F)(F)F)n1 | < 50 nM |
| COc1ccc(-c2ccc([C@@H](Oc3cc(N4CCC5(CC4)CN[C@H](C(=O)O)C5)nc(C)n3)C(F)(F)F)c(-n3ccc(C)n3)c2)c(OC)c1 [Example 29h] | < 50 nM |
| Cc1ccc(C)c(-c2ccc([C@@H](Oc3cc(N4CCC5(CC4)CN[C@H](C(=O)O)C5)nc(N)n3)C(F)(F)F)cc2)c1 [Example 55cs] | 300 to 3000 nM |
| Cc1ccn(-c2ccccc2[C@@H](Oc2ccnc(N3CCC4(CC3)CN[C@H](C(=O)O)C4)c2)C(F)(F)F)n1 | 300 to 3000 nM |

Could you now look at the following compound, please?
QUERY: Any idea what its IC50 is? The compound is Nc1nc(O[C@H](c2ccc(-c3ccc4cccnc4c3)cc2)C(F)(F)F)cc(N2CCC3(CC2)CN[C@H](C(=O)O)C3)n1 [Example 55bh]
RESULT: 50 to 300 nM
